# TARGET_UNDER_TEST: HLA-B*57:01
# ASSAY_METHOD_TEXT: IEDB peptide-MHC binding, purified MHC/direct/fluorescence; filed as Kd, often an IC50 or EC50 that approximates it; bounds were set here for any values at or beyond the usual limits of such assays
# CONDITION: source organism: Bacillus anthracis

SEQUENCE | TARGET_UNDER_TEST | Kd
FTDNNELEF | HLA-B*57:01 | ≥ 20 µM

* * *

# TARGET_UNDER_TEST: HLA-B*15:01
# ASSAY_METHOD_TEXT: IEDB peptide-MHC binding, purified MHC/direct/fluorescence; filed as Kd, often an IC50 or EC50 that approximates it; bounds were set here for any values at or beyond the usual limits of such assays
# CONDITION: source organism: Neisseria gonorrhoeae
PROPERTY_LABEL: Kd

SEQUENCE | PROPERTY_LABEL | REPORTED_RESULT
GSDKQVVGQ | Kd | ≥ 20 µM

* * *

# TARGET_UNDER_TEST: HLA-A*30:01
# ASSAY_METHOD_TEXT: IEDB peptide-MHC binding, purified MHC/competitive/radioactivity; filed as Kd, often an IC50 or EC50 that approximates it; bounds were set here for any values at or beyond the usual limits of such assays
# CONDITION: source organism: Dengue virus 1 Nauru/West Pac/1974
pKd: −log10 of the molar value.

SEQUENCE | pKd
RVSTVSQLA | 6.45

* * *

# TARGET_UNDER_TEST: HLA-A*02:06
# ASSAY_METHOD_TEXT: IEDB peptide-MHC binding, purified MHC/competitive/fluorescence; filed as Kd, often an IC50 or EC50 that approximates it; bounds were set here for any values at or beyond the usual limits of such assays
# CONDITION: source organism: Influenza A virus H3N2
pKd: −log10 of the molar value.

SEQUENCE | pKd
ELVRKTRFL | 5.54

* * *

# TARGET_UNDER_TEST: HLA-B*15:01
# ASSAY_METHOD_TEXT: IEDB peptide-MHC binding, purified MHC/direct/fluorescence; filed as Kd, often an IC50 or EC50 that approximates it; bounds were set here for any values at or beyond the usual limits of such assays
# CONDITION: source organism: Vibrio vulnificus
pKd: −log10 of the molar value.
Overview of reported pKd across a group of sequences:
PROPERTY_LABEL: pKd

SEQUENCE | OPERATOR_SYMBOL | REPORTED_RESULT
QSPQPVRVK | ≤ | 4.70
ILLRKGHVF | = | 6.94

* * *

# TARGET_UNDER_TEST: HLA-A*68:02
# ASSAY_METHOD_TEXT: IEDB peptide-MHC binding, purified MHC/competitive/radioactivity; filed as Kd, often an IC50 or EC50 that approximates it; bounds were set here for any values at or beyond the usual limits of such assays
# CONDITION: source organism: Lassa virus Josiah
PROPERTY_LABEL: Kd

SEQUENCE | REPORTED_RESULT
GLYKQPGVPV | ≥ 5 µM

* * *

# TARGET_UNDER_TEST: HLA-A*30:01
# ASSAY_METHOD_TEXT: IEDB peptide-MHC binding, purified MHC/competitive/fluorescence; filed as Kd, often an IC50 or EC50 that approximates it; bounds were set here for any values at or beyond the usual limits of such assays
# CONDITION: source organism: Lyssavirus rabies

SEQUENCE | Kd
RQMKSGGRF | ≥ 20 µM
